System: NCI-H2009
Assay: relative viability (nuclei count vs DMSO), 5 days (fraction); higher = more cells survive
Conditions: first compound 0.003162 µM
One threshold, 0.8, splits the recorded relative viability values: lower ones are satisfied, equal or higher ones are not satisfied.

compound	class
Cc1cn(-c2cc(NC(=O)c3ccc(C)c(Nc4nccc(-c5cccnc5)n4)c3)cc(C(F)(F)F)c2)cn1 [Nilotinib] + N=C(N)NC(=N)NCCc1ccccc1 [Phenformin] (partner 250 µM)	satisfied
Cc1cn(-c2cc(NC(=O)c3ccc(C)c(Nc4nccc(-c5cccnc5)n4)c3)cc(C(F)(F)F)c2)cn1 [Nilotinib] + CC(=O)c1c(C)c2cnc(Nc3ccc(N4CCNCC4)cn3)nc2n(C2CCCC2)c1=O [Palbociclib] (partner 0.5 µM)	satisfied
Cc1cn(-c2cc(NC(=O)c3ccc(C)c(Nc4nccc(-c5cccnc5)n4)c3)cc(C(F)(F)F)c2)cn1 [Nilotinib] + O=C(CCCCCCC(=O)Nc1ccccc1)NO [Vorinostat] (partner 1 µM)	satisfied
Cc1cn(-c2cc(NC(=O)c3ccc(C)c(Nc4nccc(-c5cccnc5)n4)c3)cc(C(F)(F)F)c2)cn1 [Nilotinib] + CCNC(=O)c1noc(-c2cc(C(C)C)c(O)cc2O)c1-c1ccc(CN2CCOCC2)cc1 [Luminespib] (partner 0.01 µM)	not satisfied
Cc1cn(-c2cc(NC(=O)c3ccc(C)c(Nc4nccc(-c5cccnc5)n4)c3)cc(C(F)(F)F)c2)cn1 [Nilotinib] + CC(C)C[C@H](NC(=O)[C@H](Cc1ccccc1)NC(=O)c1cnccn1)B(O)O [Bortezomib] (partner 0.002 µM)	not satisfied
Cc1cn(-c2cc(NC(=O)c3ccc(C)c(Nc4nccc(-c5cccnc5)n4)c3)cc(C(F)(F)F)c2)cn1 [Nilotinib] + COc1cc2c(Oc3ccc(NC(=O)C4(C(=O)Nc5ccc(F)cc5)CC4)cc3F)ccnc2cc1OCCCN1CCOCC1 [Foretinib] (partner 0.25 µM)	not satisfied
Cc1cn(-c2cc(NC(=O)c3ccc(C)c(Nc4nccc(-c5cccnc5)n4)c3)cc(C(F)(F)F)c2)cn1 [Nilotinib] + Cc1cc(Nc2cc(N3CCN(C)CC3)nc(Sc3ccc(NC(=O)C4CC4)cc3)n2)n[nH]1 [Tozasertib] (partner 0.1 µM)	not satisfied

Where do the numbers come from? From the supplement of paper PMC10307832.
